Attribution: ChEMBL document CHEMBL1833819

Test system: Trypanosoma brucei brucei
test: Antitrypanosomal activity against blood stream form Trypanosoma brucei brucei by resazurin fluorescence-based viability assay
Format: functional, organism-based
Provide the reported pEC50 of each item.
Answers are plain numbers, as −log10 of the molar value.

// known answers, use as guide
{"molecule": "CC1=Nc2ccc(Cl)cc2C(c2ccccc2)N1Cc1ccccc1F (racemic)", "measured on": "Trypanosoma brucei brucei", "pEC50": 4.85}
{"molecule": "CC1=Nc2ccc(I)cc2C(c2ccccc2)N1CCN1CCCCC1 (racemic)", "measured on": "Trypanosoma brucei brucei", "pEC50": 6.26}
{"molecule": "COC(=O)CN1C(C)=Nc2ccc(Br)cc2C1c1ccccc1 (racemic)", "measured on": "Trypanosoma brucei brucei", "pEC50": 4.40}
{"molecule": "CC1=Nc2ccc(Cl)cc2C(c2ccccc2)N1CCN1CCCCC1 (racemic)", "measured on": "Trypanosoma brucei brucei", "pEC50": 5.89}
{"molecule": "CC1=Nc2ccccc2C(c2ccccc2)N1CCN1CCCCC1 (racemic)", "measured on": "Trypanosoma brucei brucei", "pEC50": 4.92}
{"molecule": "CC1=Nc2ccc(Cl)cc2C(c2ccccc2)N1CCN1CCN(C(=O)c2ccco2)CC1 (racemic)", "measured on": "Trypanosoma brucei brucei", "pEC50": 5.00}
{"molecule": "CC1=Nc2ccc(Br)cc2C(c2ccccc2)N1CCN1CCCCC1 (racemic)", "measured on": "Trypanosoma brucei brucei", "pEC50": 6.36}
{"molecule": "CC1=Nc2ccc(Cl)cc2C(c2ccccc2)N1Cc1ccccc1 (racemic)", "measured on": "Trypanosoma brucei brucei", "pEC50": 4.89}

Kindly give each listed record's pEC50.
1. CC1=Nc2ccc(Cl)cc2C(c2ccccc2)N1CCN1CCN(C(=O)CN(C)C)CC1 (racemic)
2. CC1=Nc2ccc(Cl)cc2C(c2ccccc2)N1CCNC(=O)CN(C)C (racemic)
3. CC1=Nc2ccc(Cl)cc2C(c2ccccc2)N1CCNC(=O)c1ccco1 (racemic)
4. CC1=Nc2ccc(-c3ccccc3)cc2C(c2ccccc2)N1CCN1CCCCC1 (racemic)
5. CC1=Nc2ccc(Cl)cc2C(c2ccccc2)N1Cc1cccc(N(C)C)c1 (racemic)
6. CC1=Nc2ccc(Cl)cc2C(c2ccc(C)cc2)N1CCCN(C)C (racemic)
7. CC1=Nc2ccc(Cl)cc2C(c2ccc(C)cc2)N1CCN1CCCCC1 (racemic)

[5.25, 4.89, 4.72, 6.12, 5.19, 6.14, 5.85]

// for each molecule in input: emit pEC50
1. CC1=Nc2ccc(Cl)cc2C(c2cccc(F)c2)N1CCN1CCCCC1 (configuration not stated)
2. CC1=Nc2ccc(Cl)cc2C(O)(c2ccc(C)cc2)N1CCN1CCCCC1 (racemic)

5.70
5.82
